- Test system: Plasmodium berghei
- method.description: Screen against P. berghei liver stage (PbLuc), transformed with Luciferase, at 2uM
- Type: functional, HepG2
- test.conditions: tested at 2 uM
Hit rate of the full screen: of about 68,000 compounds, about 2,700 (4%) showed an effect of 50% or more. Shown is part of a subset that was picked to be rich in strong results.
Please enter 1 where INHIBITION is greater than or equal to 20%, and 0 where it is lower.

# molecule, category
records = [
    ("CCOC(=O)CNC(=O)NCc1cc(C)n(-c2ccccc2OC)c1C", 0),
    ("CSCC(C)NS(=O)(=O)c1ccc(C)c(N(C)C)c1 (stereo unspecified)", 0),
    ("CC(C)C(C)N(C(=O)c1cc2c([nH]c1=O)CCCC2=O)C1CC1 (stereo unspecified)", 1),
    ("CC(=O)N[C@@H]1CN(Cc2ccccc2C#N)C[C@H]1c1ccc(C)cc1", 1),
    ("COc1cc(I)c(Cl)cc1C(=O)N(C)C", 1),
]

Entry O=C1NCCN(CC2CCCCC2)C1CC(=O)N1CCc2n[nH]cc2C1 (stereo unspecified) : is its INHIBITION no less than 20%?
0

Kindly determine if INHIBITION recorded for CCCc1cc(C(=O)N[C@@H]2CC[C@@H](N3CCOCC3)[C@@H]2O)no1 is above or exactly 20%.
0

Hi, just wondering whether O=C(N[C@@H]1CN[C@H]2CCCO[C@H]21)c1cccnc1 shows INHIBITION of 20% or higher.
1

Could you please find out whether O=C(COCC(=O)N1CCCCCC1)NCc1cccc(Br)c1 has INHIBITION that meets 20% or exceeds it?
1

Form field: INHIBITION at least 20%? Entry: COCC(=O)N1CC[C@H]2C[C@H](c3nc(C)no3)O[C@@H]2C1
0

Item CCCNC(=O)C(C)Oc1ccc(F)cc1 (stereo unspecified) with INHIBITION of 20% or above?
1

Given the entry O=C1NCCN(Cc2cccnc2)C1CC(=O)N1CCc2n[nH]cc2C1 (stereo unspecified) , answer whether its INHIBITION meets or surpasses 20%.
0

Kindly determine if INHIBITION recorded for CCOc1ccc2[nH]c(=O)c(CN3CCCC3c3ccccn3)cc2c1 (stereo unspecified) is above or exactly 20%.
0

I'd appreciate it if you could say whether c1ccc(O[C@H]2CO[C@@]3(CCN(Cc4ccc5c(c4)OCO5)C3)C2)nc1 has INHIBITION at least equal to 20%.
1

Test whether the molecule Cn1cc(CN2CCc3c(CNC(=O)C4CC4)cncc3C2)cn1 records INHIBITION of 20% or higher.
0

---

- Test system: Plasmodium berghei
- method.description: Screen against P. berghei liver stage (PbLuc), transformed with Luciferase, at 2uM
- Assay type: functional, HepG2
- test.conditions: tested at 2 uM
The whole screen tested about 68,000 compounds, of which about 2,700 (4%) showed an effect of 50% or more. What follows is part of a selection rich in strong results, with near analogues and random picks from the rest.
The following molecules are shown together with reported INHIBITION values.
Record the value in %, omitting the unit from your answer.

# molecule, target.of.assay, test.value
data = [
    ("CCCS(=O)(=O)N1C[C@@H](c2nc(C)no2)C[C@H]2OCC[C@H]21", "Plasmodium berghei", -27.12),
    ("CC(C)N(CCCNC(=O)C1CCOCC1)S(C)(=O)=O", "Plasmodium berghei", 18.14),
    ("CNC(=O)COC1COC2(CCN(c3ccc(C)nn3)CC2)C1 (centres undefined)", "Plasmodium berghei", -37.31),
    ("COC1CCN(S(=O)(=O)N2CCCC2c2ccco2)CC1 (centres undefined)", "Plasmodium berghei", 36.28),
    ("Cc1cc(NCc2ccco2)nc2[nH]nc(N)c12", "Plasmodium berghei", -0.89),
]

For this molecule ( CCS(=O)(=O)c1ccccc1N1CCC(NC(=O)NC2CCCC2)CC1 ), measured INHIBITION is 64.71

INHIBITION in this record for Cc1ncnc2c1CCN(Cc1cccs1)CC2 : -8.24

Looking up NC1CCc2c(ccc(=O)n2Cc2ccncc2)C1 (centres undefined) , I see its INHIBITION listed as 55.11

Per the record, CS(=O)(=O)N1C[C@H]2CC[C@@H](C1)N(Cc1ccc3nsnc3c1)C2 has INHIBITION of 6.3

Per the record, CCn1c2c(ccc1=O)CC(N)CC2 (centres undefined) has INHIBITION of 13.38

Data point: O=c1ccc2c(n1Cc1ccncc1)CCN(Cc1ccoc1)CC2 ; INHIBITION = 50.91

Quick note, INHIBITION for CCS(=O)(=O)N1C[C@H](c2nc(C)no2)C[C@H]2OCC[C@H]21 landed at 63.23

Per the record, O=C(CCN1CCCCO1)NCc1cn2c(n1)SCC2 has INHIBITION of 21.36

CN(C)CCCn1ccnc1C1CCCN(c2ncc(Cl)cc2F)C1 (centres undefined) has a reported INHIBITION of -18.59
